- system: T1, human CD33 (human, UniProt P20138 18-364)
- T1 construct: CD33 on human primary dendritic cells, macrophages, monocytes and T cells and on CHO cells expressing recombinant human CD33; also called Siglec-3; hCD33
- T1 sequence (P20138 18-364): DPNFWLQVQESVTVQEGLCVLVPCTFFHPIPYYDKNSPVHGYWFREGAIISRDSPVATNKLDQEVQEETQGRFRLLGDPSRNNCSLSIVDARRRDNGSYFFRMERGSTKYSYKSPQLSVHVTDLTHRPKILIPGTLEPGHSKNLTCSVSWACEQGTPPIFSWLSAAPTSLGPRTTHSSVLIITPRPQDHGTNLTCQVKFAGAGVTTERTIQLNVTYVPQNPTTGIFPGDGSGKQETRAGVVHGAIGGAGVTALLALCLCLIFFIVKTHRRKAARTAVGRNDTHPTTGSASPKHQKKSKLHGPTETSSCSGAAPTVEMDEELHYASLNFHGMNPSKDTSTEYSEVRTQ
- measurementProtocol: flow cytometry, human primary T cells;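 also: binding of anti-CD33 antibodies at 10 ug/ml to human primary T cells, 1 h on ice, detected with PE-labelled secondary antibody, read as flow cytometry MFI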

binder: C-88 (antibody, V domains shown, human IgG1) VH: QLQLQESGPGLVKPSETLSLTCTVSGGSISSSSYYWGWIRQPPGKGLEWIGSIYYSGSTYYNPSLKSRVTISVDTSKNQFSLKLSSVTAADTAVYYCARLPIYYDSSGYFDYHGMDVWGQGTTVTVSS VL: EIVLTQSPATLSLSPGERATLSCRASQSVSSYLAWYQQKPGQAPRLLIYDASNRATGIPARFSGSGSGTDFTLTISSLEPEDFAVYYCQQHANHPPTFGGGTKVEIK
T cell MFI: 204
--
binder: C-13 (antibody, V domains shown, human IgG1) VH: EVQLVESGGGLVQPGGSLRLSCAASGFTFSSYWMSWVRQAPGKGLEWVANIKSDGSEKYYVDSVKGRFTISRDNAKNSLYLQMNSLRAEDTAVYYCARGPSYLASGAFDLWGRGTLVTVSS VL: EIVLTQSPATLSLSPGERATLSCRASQSVSSYLAWYQQKPGQAPRLLIYDASNRATGIPARFSGSGSGTDFTLTISSLEPEDFAVYYCQQAYVVPPRTFGGGTKVEIK
T cell MFI: 205
--
binder: C-44 (antibody, V domains shown, human IgG1) VH: QLQLQESGPGLVKPSETLSLTCTVSGGSISSSSYAWGWIRQPPGKGLEWIGSIYYSGSTYYNPSLKSRVTISVDTSKNQFSLKLSSVTAADTAVYYCAREGYVAAYGMDVWGQGTTVTVSS VL: DIQMTQSPSSLSASVGDRVTITCRASQSISSYLNWYQQKPGKAPKLLIYAASSLQSGVPSRFSGSGSGTDFTLTISSLQPEDFATYYCQQAYYPPWTFGGGTKVEIK
T cell MFI: 310
--
binder: C-10 (antibody, V domains shown, human IgG1) VH: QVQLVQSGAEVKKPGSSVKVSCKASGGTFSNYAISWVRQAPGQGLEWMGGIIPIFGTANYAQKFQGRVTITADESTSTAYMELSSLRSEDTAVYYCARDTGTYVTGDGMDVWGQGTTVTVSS VL: EIVMTQSPATLSVSPGERATLSCRASQSVSSNLAWYQQKPGQAPRLLIYGASTRATGIPARFSGSGSGTEFTLTISSLQSEDFAVYYCQQYVNLPITFGGGTKVEIK
T cell MFI: 246
--
binder: C-42 (antibody, V domains shown, human IgG1) VH: QLQLQESGPGLVKPSETLSLTCTVSGGSISSSSYYWGWIRQPPGKGLEWIGSIYYSGSTYYNPSLKSRVTISVDTSKNQFSLKLSSVTAADTAVYYCAREPIYRRGMDVWGQGTTVTVSS VL: EIVLTQSPATLSLSPGERATLSCRASQSVSSYLAWYQQKPGQAPRLLIYDASNRATGIPARFSGSGSGTDFTLTISSLEPEDFAVYYCQQFSNYPTFGGGTKVEIK
T cell MFI: 269
--
binder: C-66 (antibody, V domains shown, human IgG1) VH: QLQLQESGPGLVKPSETLSLTCTVSGGSISSSSYYWGWIRQPPGKGLEWIGSIYYSGSTYYNPSLKSRVTISVDTSKNQFSLKLSSVTAADTAVYYCAREVGYPYGMDVWGQGTTVTVSS VL: DIQLTQSPSSLSASVGDRVTITCQASQDISNFLNWYQQKPGKAPKLLIYDASNLETGVPSRFSGSGSGTDFTFTISSLQPEDIATYYCQQYSDLPTFGGGTKVEIK
T cell MFI: 772
--
binder: C-16 (antibody, V domains shown, human IgG1) VH: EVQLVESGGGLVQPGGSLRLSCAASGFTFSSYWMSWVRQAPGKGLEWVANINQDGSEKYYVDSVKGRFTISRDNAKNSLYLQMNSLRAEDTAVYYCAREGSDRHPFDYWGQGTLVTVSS VL: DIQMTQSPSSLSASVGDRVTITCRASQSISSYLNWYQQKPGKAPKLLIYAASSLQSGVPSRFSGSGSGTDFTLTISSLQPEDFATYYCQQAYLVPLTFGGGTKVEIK
T cell MFI: 229
--
binder: C-35 (antibody, V domains shown, human IgG1) VH: QLQLQESGPGLVKPSETLSLTCTVSGGSISSSSYAWGWIRQPPGKGLEWIGNIYYSGSTYYNPSLKSRVTISVDTSKNQFSLKLSSVTAADTAVYYCARAGYRSPSGFDYWGQGTLVTVSS VL: DIQMTQSPSSVSASVGDRVTITCRASQGISSWLAWYQQKPGKAPKLLIYAASNLQSGVPSRFSGSGSGTDFTLTISSLQPEDFATYYCQQGNAHPTFGGGTKVEIK
T cell MFI: 186
--
binder: C-72 (antibody, V domains shown, human IgG1) VH: QVQLVESGGGVVQPGRSLRLSCAASGFTFSSYGMHWVRQAPGKGLEWVAVIWYDGSNKYYADSVKGRFTISRDNSKNTLYLQMNSLRAEDTAVYYCAKEGGTYSDDFDLWGGGTLVTVSS VL: DIQMTQSPSSVSASVGDRVTITCRASQGISSWLAWYQQKPGKAPKLLIYAASSLQSGVPSRFSGSGSGTDFTLTISSLQPEDFATYYCQQASSFPLTFGGGTKVEIK
T cell MFI: 330
--
binder: C-12 (antibody, V domains shown, human IgG1) VH: EVQLLESGGGLVQPGGSLRLSCAASGFTFSNYAMSWVRQAPGKGLEWVSAISGSGGSTYYADSVKGRFTISRDNSKNTLYLQMNSLRAEDTAVYYCARDGSRYSYGLVAYGMDVWGQGTTVTVSS VL: EIVLTQSPGTLSLSPGERATLSCRASQSVSSSFLAWYQQKPGQAPRLLIYGASSRATGIPDRFSGSGSGTDFTLTISRLEPEDFAVYYCQQSQLRPTFGGGTKVEIK
T cell MFI: 182
